Catalogue of pIC50 readings, one per entry.
Molecular target: ATX (Homo sapiens, UniProt Q13822)
Experiment: Amplex Red Lyso-phospholipase D assay, human ATX
Format: biochemical
Design: purchased Sino Biological
Settings: recombinant human ATX 2 nM, LPC 16:0 substrate, Amplex Red; read-out: IC50 hATX
pIC50: −log10 of the molar value.

{"MOLECULE": "CCOC(=O)c1sc(SCc2ccccc2)c2c1CC(c1ccc(C)cc1)CC2O (centres unmarked)", "pIC50": 4.52}
{"MOLECULE": "O=c1[nH]nc(-c2ccc(F)cc2)cc1Cc1cn(Cc2ccccc2)c2ccc([N+](=O)[O-])cc12", "pIC50": "< 4.00"}
{"MOLECULE": "O=C(NC(=O)c1ccc(-c2ccc(Cl)cc2)s1)Nc1cc(C(F)(F)F)cc(C(F)(F)F)c1", "pIC50": "< 4.00"}
{"MOLECULE": "CCOC(=O)C1CCN(C(=O)Cc2c(Sc3ccc(Cl)cc3)[nH]c3ccccc23)CC1", "pIC50": 4.84}
{"MOLECULE": "O=C(c1cccnc1Oc1ccc(Cl)cc1)N1CCN(C2c3ccccc3-c3ccccc32)CC1", "pIC50": "< 4.00"}
{"MOLECULE": "O=S(=O)(Nc1cc(-c2cccs2)nn1-c1ccc(F)cc1)c1ccc(-c2cc(C(F)(F)F)on2)s1", "pIC50": "< 4.00"}
{"MOLECULE": "Cc1ccc(C2=CC(c3cn(-c4ccccc4)nc3-c3ccccc3)N3C(=O)CSC3=N2)cc1 (centres unmarked)", "pIC50": "< 4.00"}
{"MOLECULE": "COc1cccc(NC(=S)N2CCn3cccc3C2c2ccc(OC)c(OC)c2)c1 (centres unmarked)", "pIC50": 5.25}
{"MOLECULE": "NC(=NOC(=O)c1cncc(C#Cc2ccccc2)c1)c1cccc(C(F)(F)F)c1", "pIC50": "< 4.00"}
{"MOLECULE": "Cc1c(S(=O)(=O)N2CCN(C3c4ccccc4-c4ccccc43)CC2)sc2ccc(Cl)cc12", "pIC50": "< 4.00"}
{"MOLECULE": "CC(C)(C)c1ccc(-c2nnc(SCC(=O)c3ccccc3)n2-c2ccc3c(c2)OCO3)cc1", "pIC50": "< 4.00"}
{"MOLECULE": "O=C(c1ccc(Sc2ccccc2)c([N+](=O)[O-])c1)N(Cc1ccc2c(c1)OCO2)c1ccc(F)cc1", "pIC50": "< 4.00"}
{"MOLECULE": "COc1ccc(-n2c(-c3ccc(Cl)cc3)cc(-c3cccs3)c2-c2ccccc2)cc1", "pIC50": "< 4.00"}
{"MOLECULE": "Nc1ncnc2c1ncn2CCc1ccccc1", "pIC50": "< 4.00"}
{"MOLECULE": "COc1ccc(C2C(C(=O)O)c3ccccc3C(=O)N2Cc2ccc(F)cc2)cc1 (centres unmarked)", "pIC50": "< 4.00"}
{"MOLECULE": "Cc1[nH]c2ccccc2c1C1=CCN(S(=O)(=O)c2cccc3nsnc23)CC1", "pIC50": 4.87}
{"MOLECULE": "C(=C1c2ccccc2-c2ccccc21)C(C=C1c2ccccc2-c2ccccc21)c1ccccc1", "pIC50": "< 4.00"}

###

Target: ATX (Homo sapiens)
Test: Amplex Red Lyso-phospholipase D assay, human ATX
Assay type: biochemical
Parameters: purchased Sino Biological
Conditions: Table S2, at 30uM; read-out: %inhibition at 30uM
# Lookup of reported inhibition at 30 µM keyed by entry
MEASURED QUANTITY: inhibition at 30 µM

{"MOLECULE": "Cc1ccccc1-n1nc2c(c1NC(=O)c1ccc3ccccc3c1)CS(=O)(=O)C2", "OBSERVED RESULT": "38.6%"}
{"MOLECULE": "CC1Cc2nc(SCC(=O)NCc3ccc(F)cc3)n(Cc3ccccc3)c(=O)c2S1 (stereo not shown)", "OBSERVED RESULT": "35.3%"}
{"MOLECULE": "CCOC(=O)C1CCN(C(=O)Cc2c(Sc3ccc(Cl)cc3)[nH]c3ccccc23)CC1", "OBSERVED RESULT": "69.8%"}
{"MOLECULE": "O=C(Nc1c2c(nn1-c1ccc(F)cc1)C[S+]([O-])C2)c1cccc2ccccc12 (stereo not shown)", "OBSERVED RESULT": "9.6%"}
{"MOLECULE": "COc1ccccc1C(=O)NCc1nc2ccccc2n1Cc1cc(C)ccc1C", "OBSERVED RESULT": "17.1%"}
{"MOLECULE": "Cc1cccc(C)c1NC(=O)CSc1nc2ccccc2c(=O)n1CCc1cccs1", "OBSERVED RESULT": "84.2%"}
{"MOLECULE": "O=C(Cn1cnc2ccsc2c1=O)c1c(-c2ccccc2)[nH]c2ccccc12", "OBSERVED RESULT": "16%"}
{"MOLECULE": "O=C1Nc2ccccc2/C1=C/c1cc2ccccc2n1S(=O)(=O)c1ccccc1", "OBSERVED RESULT": "13.2%"}
{"MOLECULE": "COc1ccc(Cn2c(C(=O)O)c(CNC3CCCCC3)c3ccc(C)cc32)cc1", "OBSERVED RESULT": "3.21%"}
{"MOLECULE": "CCOC(=O)Cc1c(CN2CCN(C)CC2)c2ccccc2n1Cc1ccccc1", "OBSERVED RESULT": "0%"}
{"MOLECULE": "CCOC(=O)c1c(CN2CCCCC2)n(-c2ccccc2)c2cc(Br)c(OC)cc12", "OBSERVED RESULT": "20.6%"}
{"MOLECULE": "COc1cccc(NC(=S)N2CCn3cccc3C2c2ccc(OC)c(OC)c2)c1 (stereo not shown)", "OBSERVED RESULT": "83.3%"}
{"MOLECULE": "O=C(Cc1cccc2ccccc12)Nc1c2c(nn1-c1ccccc1)CS(=O)(=O)C2", "OBSERVED RESULT": "43%"}
{"MOLECULE": "O=C(Nc1c2c(nn1-c1ccc(F)cc1)C[S+]([O-])C2)c1ccc2ccccc2c1 (stereo not shown)", "OBSERVED RESULT": "18.2%"}
{"MOLECULE": "Cc1ccc(S(=O)(=O)n2cc(C=C3C(=O)Nc4ccccc43)c3ccccc32)cc1", "OBSERVED RESULT": "55.3%"}
{"MOLECULE": "CCc1ccc([C@H](NC(=O)CCN2C(=O)[C@@H](C)Oc3ccccc32)c2cccs2)cc1", "OBSERVED RESULT": "9.71%"}
{"MOLECULE": "Cc1ccccc1-n1nc2c(c1NC(=O)c1cccc3ccccc13)C[S+]([O-])C2 (stereo not shown)", "OBSERVED RESULT": "4.2%"}
{"MOLECULE": "COc1ccccc1NC(=S)N1CCn2cccc2C1c1ccc(OC)c(OC)c1 (stereo not shown)", "OBSERVED RESULT": "33.5%"}
{"MOLECULE": "Cc1[nH]c2ccccc2c1C1=CCN(S(=O)(=O)c2cccc3nsnc23)CC1", "OBSERVED RESULT": "70.6%"}
{"MOLECULE": "CCOC(=O)c1sc(SCc2ccccc2)c2c1CC(c1ccc(C)cc1)CC2O (stereo not shown)", "OBSERVED RESULT": "43.6%"}
{"MOLECULE": "CCOC(=O)c1c(CN2CCCC2)n(-c2ccccc2)c2cc(Br)c(OC)cc12", "OBSERVED RESULT": "17%"}
{"MOLECULE": "Cc1ccc(-n2nc3c(c2NC(=O)c2cccc4ccccc24)C[S+]([O-])C3)cc1 (stereo not shown)", "OBSERVED RESULT": "13.6%"}
